Test: Human HepG2 cell viability assay in 384 well format
Format: toxicity, cell-based
Design: dose 125 nL, time 70.5 hour; concentration not given beside the values
Details: HepG2 cells, read-out: Inhibition
endpoint: cytotoxicity at 70.5 h (%)
# unit: % | format: bare number

Would you kindly share the measured cytotoxicity at 70.5 h for COc1ccccc1CN1CC[C@]2(C[C@@H](OCC(=O)N(C)C)CO2)C1 ? -3.75

Would you kindly share the measured cytotoxicity at 70.5 h for CC(C)N(C)C[C@H]1C[C@@H]2CN(Cc3ccco3)C[C@@H]2O1 ? -1.96

Would you kindly share the measured cytotoxicity at 70.5 h for Cc1ccc(C(=O)N2CCC3(CC2)C(=O)NCCN3C)cc1O ? -6.34

Would you kindly share the measured cytotoxicity at 70.5 h for Cc1cnn(C2CCCN(C(=O)c3cc[nH]n3)C2)c1 (stereo unspecified) ? -5.43

Would you kindly share the measured cytotoxicity at 70.5 h for CC(C)NC(=O)c1ccc2nnc(C3CCN(S(C)(=O)=O)C3)n2c1 (stereo unspecified) ? -0.738

Would you kindly share the measured cytotoxicity at 70.5 h for CC1CN(C(=O)CN(Cc2ccco2)Cc2cccs2)CCO1 (stereo unspecified) ? 3

Would you kindly share the measured cytotoxicity at 70.5 h for CCCn1[nH]cc/c1=N\C(=O)CN1CCCC1c1c(C)nn(C)c1C (stereo unspecified) ? 16.9

Would you kindly share the measured cytotoxicity at 70.5 h for O=C(c1ccc(-n2cnnc2)cc1)N1CCCC(n2ccnc2)C1 (stereo unspecified) ? -8.88

Would you kindly share the measured cytotoxicity at 70.5 h for COc1ccc(-c2nc(CNC(C)Cn3cccn3)cs2)cc1 (stereo unspecified) ? -12.5

Would you kindly share the measured cytotoxicity at 70.5 h for COCCNC(=O)c1nc(-c2ccc3cc[nH]c3c2)no1 ? -17.1

Would you kindly share the measured cytotoxicity at 70.5 h for Cc1ccccc1CS(=O)(=O)c1nnc(N2CCOCC2)s1 ? 8.66

Would you kindly share the measured cytotoxicity at 70.5 h for CC(C)=CCN1CCN(C(=O)CSc2ccccn2)[C@H]2CS(=O)(=O)C[C@H]21 ? -8.43

Would you kindly share the measured cytotoxicity at 70.5 h for Cc1noc(C)c1CN(C)C(=O)C1CCCCN1S(C)(=O)=O (stereo unspecified) ? 13.6

Would you kindly share the measured cytotoxicity at 70.5 h for CC(NC(=O)NCCn1ccnc1)c1nncn1C (stereo unspecified) ? 20.5

Would you kindly share the measured cytotoxicity at 70.5 h for N#Cc1nccnc1N1CCC(c2nc(C(F)(F)F)c[nH]2)CC1 ? -9.24

Would you kindly share the measured cytotoxicity at 70.5 h for CC1c2ccc(F)cc2CCN1C(=O)c1nc(=O)[nH][nH]1 (stereo unspecified) ? -6.25

Would you kindly share the measured cytotoxicity at 70.5 h for O=C(C1CCC1)N1C[C@@H]2CN(c3ccccc3)C(=O)[C@@H]2C1 ? 11

Would you kindly share the measured cytotoxicity at 70.5 h for CC(C)CNC(=O)CN(CC(=O)NCC(C)C)S(C)(=O)=O ? -8.05

Would you kindly share the measured cytotoxicity at 70.5 h for CS(=O)(=O)N1CC[C@@H]2[C@@H](CCC(=O)N2CCC2=CCCCC2)C1 ? 16.1

Would you kindly share the measured cytotoxicity at 70.5 h for FC(F)(F)c1n[nH]c2c1CN(Cc1cn3ccccc3n1)CC2 ? -6.32

Would you kindly share the measured cytotoxicity at 70.5 h for O=C(c1cscn1)N1CCC2(CCN(Cc3nccs3)CC2)CC1 ? -14.7

Would you kindly share the measured cytotoxicity at 70.5 h for Cc1nc(N2CCCC2C(=O)NCc2ccsc2)nc2ccccc12 (stereo unspecified) ? -6.09

Would you kindly share the measured cytotoxicity at 70.5 h for O=C(c1cnccn1)N(CCO)Cc1cc(Br)ccc1F ? -5.51

Would you kindly share the measured cytotoxicity at 70.5 h for c1ccc(-c2noc(C3CCN(CCn4cccn4)CC3)n2)cc1 ? 12.8

Would you kindly share the measured cytotoxicity at 70.5 h for Cn1cc(CN(Cc2ccccc2)Cc2ccccn2)cn1 ? 18

Would you kindly share the measured cytotoxicity at 70.5 h for O=C([C@H]1C[C@H]2OCC[C@H]2N(CCc2ccccc2)C1)N1CCCCO1 ? -6.32

Would you kindly share the measured cytotoxicity at 70.5 h for COc1ccc(CN(C)[C@@H]2CN(C(=O)c3cccn3C)C[C@H]2O)cc1 ? 16.9

Would you kindly share the measured cytotoxicity at 70.5 h for CC(C)[C@H](Nc1nc(C2CCCC2)nc2c1cnn2C)C(N)=O ? -12.3

Would you kindly share the measured cytotoxicity at 70.5 h for CNc1cc(C)nc(C2CCN(CCO)CC2)n1 ? -6.23

Would you kindly share the measured cytotoxicity at 70.5 h for FC(F)(F)C1CCc2nnc(CNCc3ccsc3)n2C1 (stereo unspecified) ? -2.38

Would you kindly share the measured cytotoxicity at 70.5 h for Cc1cccc(CNc2cc(C3CCCNC3)ccn2)n1 (stereo unspecified) ? -7.94

Would you kindly share the measured cytotoxicity at 70.5 h for COc1ccc(C(CO)NC(=O)Nc2cccc(C#N)c2)cc1 (stereo unspecified) ? -8.65

Would you kindly share the measured cytotoxicity at 70.5 h for CCn1nc(C)c2c1cnn2CC(=O)Nc1ccc(OC)cc1C ? -1.46

Would you kindly share the measured cytotoxicity at 70.5 h for O=C(CN1CCCC1Cn1cccn1)NC1CCOCC1 (stereo unspecified) ? -5.99

Would you kindly share the measured cytotoxicity at 70.5 h for O=C(NCC(=O)N1CCCC(n2cncn2)C1)OCc1ccccc1 (stereo unspecified) ? -0.265

Would you kindly share the measured cytotoxicity at 70.5 h for Cc1nccn1CCC1CCCCN1C(=O)c1ccc2[nH]nnc2c1 (stereo unspecified) ? -1.82

Would you kindly share the measured cytotoxicity at 70.5 h for CC(O)Cc1cn(CC2CCN(C3CCSCC3)CC2)nn1 (stereo unspecified) ? -4.31

Would you kindly share the measured cytotoxicity at 70.5 h for COc1ccc(C2(C(=O)N3CC(c4cccnc4)C3)CC2(C)C)cc1 (stereo unspecified) ? -0.294

Would you kindly share the measured cytotoxicity at 70.5 h for Cn1ccnc1-c1nc2cc(S(=O)(=O)N3CCCC3)ccc2n1C ? -26.2

Would you kindly share the measured cytotoxicity at 70.5 h for O=C(c1cnccn1)N1CCN(Cc2csc(-c3ccccc3)n2)CC1 ? 10.5

Would you kindly share the measured cytotoxicity at 70.5 h for CCCc1cc(=O)n(CC(=O)NC(C)C)c(-n2nc(C)cc2C)n1 ? -4.73

Would you kindly share the measured cytotoxicity at 70.5 h for CCNC(=O)NC(=O)CNc1cc(C(=O)OC)cc(C(F)(F)F)c1 ? -3.94

Would you kindly share the measured cytotoxicity at 70.5 h for CCOc1ccccc1C1=CCN(C(=O)C2CCN(C)C(=O)C2)CC1 (stereo unspecified) ? 16.3

Would you kindly share the measured cytotoxicity at 70.5 h for Cc1cccc(C(=O)Nc2ccc(OC3CCOCC3)c(C)c2)n1 ? 15.2

Would you kindly share the measured cytotoxicity at 70.5 h for CC(C)c1nnc(C2CCN(CC(=O)Nc3cccnc3)CC2)o1 ? -5.94

Would you kindly share the measured cytotoxicity at 70.5 h for O=C(c1cccnc1)N1CCc2ncnc(N3CCOCC3)c2CC1 ? -7.42

----------
Field: cytotoxicity at 70.5 h. Provide a value for each of the compounds that follow.
Experiment: Human HepG2 cell viability assay in 384 well format
Format: toxicity, cell-based
Set-up: dose 125 nL, time 70.5 hour; concentration not given beside the values
Conditions: HepG2 cells, read-out: Inhibition
# unit: % | format: bare number

Would you kindly share the measured cytotoxicity at 70.5 h for CCC(C)c1noc(C2CCN(C(=O)c3cccs3)CC2)n1 (centres undefined) ? -10.7

Would you kindly share the measured cytotoxicity at 70.5 h for Cc1cc(C)nc(N2CCC(C(=O)O)(n3ccc(C(C)(C)C)n3)CC2)n1 ? -10.1

Would you kindly share the measured cytotoxicity at 70.5 h for COc1ccc(OC)c(C(O)CNC(=O)Nc2cc(C)nn2C)c1 (centres undefined) ? -7.8

Would you kindly share the measured cytotoxicity at 70.5 h for CN(C)S(=O)(=O)NCc1nc(-c2cccc(F)c2)c(-c2ccccn2)[nH]1 ? -0.435

Would you kindly share the measured cytotoxicity at 70.5 h for c1c(CN2CCCC2)nc2n1CCN(C1CCOCC1)C2 ? -0.565

Would you kindly share the measured cytotoxicity at 70.5 h for Cc1ncsc1CNc1ccn(Cc2ccccc2)n1 ? 6.63

Would you kindly share the measured cytotoxicity at 70.5 h for CC(NC(=O)Cn1ccc(=O)n(C)c1=O)c1cc(F)ccc1F (centres undefined) ? -1.78

Would you kindly share the measured cytotoxicity at 70.5 h for Cn1cccc1C(=O)N[C@@H]1CN(Cc2cccs2)[C@@H]2COC[C@@H]21 ? -3.46

Would you kindly share the measured cytotoxicity at 70.5 h for CC1(C)CC(N(Cc2ccccc2)Cc2ncc[nH]2)CC(C)(C)N1 ? -1.78

Would you kindly share the measured cytotoxicity at 70.5 h for CCC1CN(C(=O)COc2ccc(C)nc2)CCO1 (centres undefined) ? 0.326

Would you kindly share the measured cytotoxicity at 70.5 h for CNC(=O)CN1CCN(C(=O)Nc2ccc(Cl)cc2F)CC1 ? -1.72

Would you kindly share the measured cytotoxicity at 70.5 h for O=C(NC1CC1)c1nc(COc2ccc3c(c2)OCO3)no1 ? -9.12

Would you kindly share the measured cytotoxicity at 70.5 h for CCc1nc(CN(C)C2CCN(CC(=O)N(C)C)C2)no1 (centres undefined) ? -5.61

Would you kindly share the measured cytotoxicity at 70.5 h for COc1cccc2c1OCC(C(=O)N(C)CCCc1cnn(C)c1)C2 (centres undefined) ? -1.77

Would you kindly share the measured cytotoxicity at 70.5 h for CC[C@@H](NC(C)=O)C(=O)NCc1cccnc1Oc1ccccc1OC ? 8.31

Would you kindly share the measured cytotoxicity at 70.5 h for CCS(=O)(=O)N1CCN(C(=O)c2ccc(Cn3cc(Br)cn3)cc2)CC1 ? -6.35

Would you kindly share the measured cytotoxicity at 70.5 h for CCN(CC)C(=O)Cn1cc(-c2nc(C(C)C)no2)nn1 ? -9.42

Would you kindly share the measured cytotoxicity at 70.5 h for Cn1cc(CN2CCO[C@H]3C(Cn4cccn4)CC[C@@H]32)cn1 (some centres undefined) ? 2.67

Would you kindly share the measured cytotoxicity at 70.5 h for CCn1cnnc1CNC(=O)NCC(C(C)C)N1CCC(C)CC1 (centres undefined) ? 10.3

Would you kindly share the measured cytotoxicity at 70.5 h for Oc1cc(C2CCCCN2Cc2cccs2)nc(-c2ccccn2)n1 (centres undefined) ? 64.3

Would you kindly share the measured cytotoxicity at 70.5 h for Cc1ccsc1CN(CCCO)Cc1nc2ccccc2[nH]1 ? -1.23

Would you kindly share the measured cytotoxicity at 70.5 h for CC(=O)N1CCCN(C(C(=O)O)c2cccc(C)c2C)CC1 (centres undefined) ? -12.3

Would you kindly share the measured cytotoxicity at 70.5 h for CCN(C(=O)NCCc1ccc(C)cc1C)C(C)CS(C)(=O)=O (centres undefined) ? -12.9

Would you kindly share the measured cytotoxicity at 70.5 h for CCCn1ccc2ccc(NC(=O)N(C)CCOC)cc21 ? -1.44
